system: Human alphaherpesvirus 3; assay: Minimum inhibitory concentration required to reduce Varicella-Zoster virus (VZV (Oka)) virus-induced cytopathicity by 50%; type: functional
Reported values of log10(MIC) for individual entries
observable: log10(MIC) (log10 of the value in µg/mL)

{"compound": "Cc1ccc(-c2cn([C@H]3C[C@H](O)[C@@H](CO)O3)c(=O)[nH]c2=O)s1", "log10(MIC)": -1.10}
{"compound": "C=Cc1ccc(-c2cn([C@H]3C[C@H](O)[C@@H](CO)O3)c(=O)[nH]c2=O)s1", "log10(MIC)": 0.85}
{"compound": "O=c1[nH]c(=O)n([C@H]2C[C@H](O)[C@@H](CO)O2)cc1-c1cccs1", "log10(MIC)": 0.48}
{"compound": "O=c1[nH]c(=O)n([C@H]2C[C@H](O)[C@@H](CO)O2)cc1-c1ccsc1", "log10(MIC)": 0.18}
{"compound": "C#Cc1ccc(-c2cn([C@H]3C[C@H](O)[C@@H](CO)O3)c(=O)[nH]c2=O)s1", "log10(MIC)": -0.60}
{"compound": "O=c1[nH]c(=O)n([C@H]2C[C@H](O)[C@@H](CO)O2)cc1-c1ccoc1", "log10(MIC)": 1.70}
{"compound": "O=c1[nH]c(=O)n(C2O[C@H](CO)[C@@H](O)[C@@H]2O)cc1-c1ccc(Cl)s1 (some centres undefined)", "log10(MIC)": -1.10}
{"compound": "O=c1[nH]c(=O)n([C@H]2C[C@H](O)[C@@H](CO)O2)cc1-c1ccno1", "log10(MIC)": -0.32}
{"compound": "C[Si](C)(C)C#Cc1ccc(-c2cn([C@H]3C[C@H](O)[C@@H](CO)O3)c(=O)[nH]c2=O)s1", "log10(MIC)": -0.70}
